target: Mitogen-activated protein kinase 14 (Homo sapiens, UniProt Q16539); test: Inhibition of mitogen-activated protein kinase p38 alpha
Sequence (Q16539 whole entry): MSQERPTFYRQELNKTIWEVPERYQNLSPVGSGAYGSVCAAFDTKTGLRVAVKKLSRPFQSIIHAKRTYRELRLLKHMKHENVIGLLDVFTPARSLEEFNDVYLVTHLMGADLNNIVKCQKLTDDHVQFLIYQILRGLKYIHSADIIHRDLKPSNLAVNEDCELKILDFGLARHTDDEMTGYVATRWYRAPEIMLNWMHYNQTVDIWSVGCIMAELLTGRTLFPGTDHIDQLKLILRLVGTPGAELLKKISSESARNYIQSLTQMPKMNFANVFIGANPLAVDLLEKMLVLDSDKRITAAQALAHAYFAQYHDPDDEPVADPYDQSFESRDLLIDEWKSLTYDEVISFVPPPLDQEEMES
Values of IC50 strictly less than 800 nM map to True, and values of at least 800 nM map to False.

Compound: CSc1nc(-c2ccc(F)cc2)c(-c2ccnc(NC(C)=O)c2)n1CCN1CCCCC1
Label value: False
//
Compound: CCOC(=O)N1CCC(n2c(SC)nc(-c3ccc(F)cc3)c2-c2ccnc(NC(C)=O)c2)CC1
Label value: False
//
Compound: COCCCn1c(SCCC(=O)N2CCOCC2)nc(-c2ccc(F)cc2)c1-c1ccnc(NC(C)=O)c1
Label value: False
//
Compound: CSc1nc(-c2ccc(F)cc2)c(-c2ccnc(NC(C)=O)c2)n1CCO
Label value: True
//
Compound: CC(=O)Nc1cc(-c2c(-c3ccc(F)cc3)nc(SCc3ccc([S+](C)[O-])cc3)n2CC(C)O)ccn1 (configuration not stated)
Label value: False
//
Compound: C=CCOCCn1c(SCc2ccc([S+](C)[O-])cc2)nc(-c2ccc(F)cc2)c1-c1ccnc(NC(C)=O)c1 (configuration not stated)
Label value: False
//
Compound: CSc1nc(-c2ccc(F)cc2)c(-c2ccnc(NC(C)=O)c2)n1CCCN1CCOCC1
Label value: False
//
Compound: CC(=O)Nc1cc(-c2c(-c3ccc(F)cc3)nc(SCc3ccc([S+](C)[O-])cc3)n2CCN2CCCCC2)ccn1 (configuration not stated)
Label value: False
//
Compound: COCCCn1c(SC)nc(-c2ccc(F)cc2)c1-c1ccnc(NC(C)=O)c1
Label value: True
//
Compound: CC(=O)Nc1cc(-c2c(-c3ccc(F)cc3)nc(SCc3ccc([S+](C)[O-])cc3)n2CCO)ccn1 (configuration not stated)
Label value: False
//
Compound: C=CCOCCn1c(SC)nc(-c2ccc(F)cc2)c1-c1ccnc(NC(C)=O)c1
Label value: False
//
Compound: C#CCOCCn1c(SC)nc(-c2ccc(F)cc2)c1-c1ccnc(NC(C)=O)c1
Label value: True
//
Compound: CSc1nc(-c2ccc(F)cc2)c(-c2ccnc(NC(C)=O)c2)n1CCN(C)C
Label value: False
//
Compound: CSc1nc(-c2ccc(F)cc2)c(-c2ccnc(NC(C)=O)c2)n1CCNC(C)=O
Label value: False
//
Compound: COCCCn1c(SCc2ccc([S+](C)[O-])cc2)nc(-c2ccc(F)cc2)c1-c1ccnc(NC(C)=O)c1 (configuration not stated)
Label value: False
//
Compound: COCCn1c(SCc2ccc([S+](C)[O-])cc2)nc(-c2ccc(F)cc2)c1-c1ccnc(NC(C)=O)c1 (configuration not stated)
Label value: True
